Target: T1, recombinant MBP-E2 fusion protein (Human papillomavirus type 16, UniProt P03120 1-365, limits assumed)
T1 construct: The legend says only 'MBP-E2'
T1 sequence: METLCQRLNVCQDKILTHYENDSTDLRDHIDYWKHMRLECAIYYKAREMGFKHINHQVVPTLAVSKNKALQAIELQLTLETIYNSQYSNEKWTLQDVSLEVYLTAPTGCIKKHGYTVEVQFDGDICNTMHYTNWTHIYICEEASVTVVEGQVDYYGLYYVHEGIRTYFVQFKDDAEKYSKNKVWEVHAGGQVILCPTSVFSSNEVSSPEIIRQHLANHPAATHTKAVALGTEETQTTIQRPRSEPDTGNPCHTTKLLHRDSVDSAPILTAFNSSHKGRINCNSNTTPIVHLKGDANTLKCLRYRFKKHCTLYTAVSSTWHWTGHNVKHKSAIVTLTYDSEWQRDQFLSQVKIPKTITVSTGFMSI
Assay: ELISA, plate coated with MBP-E2, purified antibody
EXPERIMENTAL ENDPOINT: binding result

(Q) Please give the measured binding result for this binder: 22-E2G5 (antibody, V domains shown) VH: EVQVVESGGGLVQPGGSLRLSCAASGFTVNSKFMTWVRQAPGTGLECVSIIYNDGSTYYADSVKGRFTISRDNSKNTLYLQMNRLRPEDTAVYFCARRAFFGGNDDFDIWGQGTLVTVSS VL: EIVLTQSPGTLSLSPGDRATLSCRAGQSVSSSFLAWYQQRPGQPPRLLIYGASSRATDIPDRFSGSGSGTDFTLTISRLEPEDFAVYYCHQYSSSLPTFGPGTKVEIK
(A) binds

(Q) Please give the measured binding result for this binder: 22-E2C5 (antibody, V domains shown) VH: QVQLVQSGAEVKKPGASVKVSCRTSGYSFTRYYIHWVRQSPGRGLEWMGIIDPNNGGTTSAKTLLGKVSMTRDTSTSTAHLELTSLGPEDTAVYYCAILYSNGLEVWDYWGQGTLVTVSS VL: SHELTQPPSVSVSPGQTAQITCSGDTLPDNYAYWYQQRSGQAPVLVVYEDNKRPSGIPERFSGSSSGTMATLTISGAQVEDDADYYCYSSDRSNNFFGGGTKLTVLS
(A) binds

(Q) Please give the measured binding result for this binder: 22-E2D4 (antibody, V domains shown) VH: QVQLVQSGAEVKRPGSSVKVSCKASGDNFNNYAFHWVRQAPGQGLEWMGRTIPFLGLTSYSPNIQGRVSISADKSTATAFMEMSGLRSEDTAMYYCASSIRLGDFLYRASYYYSSPLDVWGQGTTVTVSS VL: EVVLTQSPGTLSLSPGDRATLTCRAGQTISNSYLAWYQQKPGQAPRLLISGVSSRATGIPDRFSGSGSGTDFTLTISRLEPEDFAVYYCQLYGNSPSFGQGTRLEIK
(A) binds
